B1: ZBTB22 (parent)
chain: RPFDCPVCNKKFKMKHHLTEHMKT

# Variants of: B1
# Assay Procedure: protein stability index of a GFP-peptide fusion (GPS, HEK-293T) (PSI 1-6); higher = more stable;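 further: lentivirally expressed fusions sorted by FACS into six bins by GFP to DsRed ratio, PSI derived from sequencing read proportions per bin multiplied by bin number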
# Test Conditions: c terminus: a fixed tail appended
Quantity Kind: protein stability index

Input: Could you tell me which protein stability index is on file for T24W ?
Output: 2.22

Input: Could you tell me which protein stability index is on file for C8E ?
Output: 2.97

Input: Could you tell me which protein stability index is on file for R1E ?
Output: 3.67

Input: Could you tell me which protein stability index is on file for L18W ?
Output: 2.59

Input: Could you tell me which protein stability index is on file for P2A ?
Output: 2.83

Input: Could you tell me which protein stability index is on file for F3K ?
Output: 2.61

Input: Could you tell me which protein stability index is on file for M22L ?
Output: 2.95

Input: Could you tell me which protein stability index is on file for N9H ?
Output: 3.23

Input: Could you tell me which protein stability index is on file for N9W ?
Output: 1.49

Input: Could you tell me which protein stability index is on file for K15G ?
Output: 2.78

Input: Could you tell me which protein stability index is on file for K23D ?
Output: 2.61
